system: Staphylococcus aureus H 228; experiment: in vitro antibacterial activity, MIC by microtitration dilution method; format: cell-based; conditions: H228, read-out: Minimal Inhibitory Concentration MIC
So I've got a bunch of compounds here, and I need their MIC values.
One number for each entry, in µg/mL.

Sample records with MIC:
{"Compound": "O=C(O)c1cn(C2CC2)c2nc(N3CCNCC3)c(F)cc2c1=O", "MIC, µg/mL": 1.6}
{"Compound": "O=C(O)c1cn(C2CC2)c2c(F)c(N3CCC(O)C3)c(F)cc2c1=O (stereo not shown)", "MIC, µg/mL": 0.025}
{"Compound": "O=C(O)c1cn(C2CC2)c2c(F)c(N3CCNCC3)c(F)cc2c1=O", "MIC, µg/mL": 0.4}

As a next step, examine the compound that follows.
MIC for Staphylococcus aureus H 228 with input CN1CCN(c2nc3c(cc2F)c(=O)c(C(=O)O)cn3C2CC2)CC1 equals 0.4
